Exercise: for every item that follows, state its recorded IC50.
Target: C-Raf Raf-1 (truncated), active (Homo sapiens, UniProt P04049, Y340D/Y341D)
Sequence (P04049 306-648 Y340D/Y341D): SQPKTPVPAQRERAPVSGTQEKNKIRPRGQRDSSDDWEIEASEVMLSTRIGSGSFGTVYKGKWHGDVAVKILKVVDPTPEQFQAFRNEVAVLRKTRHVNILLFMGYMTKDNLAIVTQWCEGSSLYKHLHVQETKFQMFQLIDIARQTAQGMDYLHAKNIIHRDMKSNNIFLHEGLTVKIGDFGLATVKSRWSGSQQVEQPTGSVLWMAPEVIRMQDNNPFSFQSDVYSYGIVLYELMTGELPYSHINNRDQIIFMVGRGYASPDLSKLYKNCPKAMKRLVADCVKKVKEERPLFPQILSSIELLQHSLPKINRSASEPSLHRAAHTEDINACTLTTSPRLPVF
Experiment: C-Raf kinase inhibition (MAPH assay / IMAP assay)
Conditions: read-out: Biochemical IC50 C-Raf

Problem: Could you please provide reported IC50 for `COn1c(=O)c(-c2ccccc2Cl)cc2cnc(Nc3ccccc3)nc21` ? Thanks!
Result: < 100 nM

Problem: Give IC50 for `COc1cccc(Nc2ncc3cc(-c4c(Cl)cccc4Cl)c(=O)n(OCCCN)c3n2)c1`
Result: < 100 nM

Problem: Supply measured IC50 of `COCCOn1c(=O)c(-c2c(Cl)cccc2Cl)cc2cnc(Nc3cccc(OC)c3)nc21` in your reply.
Result: < 100 nM

Problem: Determine its reported IC50: `COn1c(=O)c(-c2cc(N)ccc2Cl)cc2cnc(Nc3ccccc3)nc21`
Result: < 100 nM

Problem: Fill in IC50 for record `COn1c(=O)c(-c2c(Cl)cccc2Cl)cc2cnc(Nc3ccc(OCCN(C)C)cc3)nc21`
Result: < 100 nM

Problem: Input `CN1CCN(c2ccc(Nc3ncc4cc(-c5c(F)cccc5Cl)c(=O)n(O)c4n3)cc2)CC1` , output reported IC50.
Result: > 1000 nM

Problem: Dear colleague, please send me the reported IC50 for `COn1c(=O)c(-c2c(Cl)cccc2Cl)cc2cnc(Nc3ccc(N4CCN(C)CC4)cc3)nc21` when you can.
Result: < 100 nM

Problem: Fill in reported IC50 for this entry: `COc1ccc(OC)c(-c2cc3cnc(Nc4ccccc4)nc3n(OC)c2=O)c1`
Result: < 500 nM

Problem: Specify measured IC50 for `CCOn1c(=O)c(-c2c(F)cccc2Cl)cc2cnc(Nc3ccc(N4CCN(C)CC4)cc3)nc21` .
Result: < 100 nM

Problem: Retrieve IC50 measured for `COn1c(=O)c(-c2ccc(Cl)cc2Cl)cc2cnc(Nc3ccc(OCCN(C)C)cc3)nc21` and print it.
Result: < 500 nM

Problem: Identify the reported IC50 for the following entry. `COn1c(=O)c(-c2ccccc2Cl)cc2cnc(Nc3cccc(S(N)(=O)=O)c3)nc21`
Result: < 100 nM

Problem: Read the entry `CC(=O)NCCCOn1c(=O)c(-c2c(Cl)cccc2Cl)cc2cnc(Nc3ccccc3)nc21` and write its reported IC50.
Result: < 100 nM

Problem: Item `NCCCOn1c(=O)c(-c2c(Cl)cccc2Cl)cc2cnc(Nc3ccccc3)nc21` : provide IC50
Result: < 500 nM

Problem: Report IC50 for `COc1cccc(Nc2ncc3cc(-c4c(F)cccc4Cl)c(=O)n(OC[C@@H](O)CO)c3n2)c1`
Result: < 100 nM

Problem: // fetch IC50 given entry `COn1c(=O)c(-c2ccccc2Cl)cc2cnc(Nc3cccc(CO)c3)nc21`
Result: < 100 nM

Problem: Provide one value: measured IC50 of `COn1c(=O)c(-c2c(Cl)cccc2Cl)cc2cnc(Nc3cccc(CN4CCCC4)c3)nc21`
Result: < 100 nM

* * *

Kindly state IC50 for each of the entries shown.
Target: B-Raf delta1-415 (Homo sapiens)
Sequence (P15056 416-766): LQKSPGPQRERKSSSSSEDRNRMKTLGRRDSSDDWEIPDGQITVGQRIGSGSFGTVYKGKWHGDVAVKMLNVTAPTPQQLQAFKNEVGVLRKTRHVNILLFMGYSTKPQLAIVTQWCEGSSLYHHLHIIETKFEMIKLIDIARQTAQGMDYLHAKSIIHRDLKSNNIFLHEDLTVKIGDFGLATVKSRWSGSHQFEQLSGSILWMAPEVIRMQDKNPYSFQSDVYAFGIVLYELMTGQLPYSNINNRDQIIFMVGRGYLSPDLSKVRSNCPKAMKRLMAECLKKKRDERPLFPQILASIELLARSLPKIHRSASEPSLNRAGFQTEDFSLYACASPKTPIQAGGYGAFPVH
Experiment: B-Raf kinase inhibition (MAPH filter plate, 33P-ATP, MEK1 substrate)
Settings: read-out: Biochemical IC50 B-Raf

Problem: Supply IC50 value. Item: `CCOn1c(=O)c(-c2c(F)cccc2Cl)cc2cnc(Nc3ccc(N4CCN(C)CC4)cc3)nc21`
Result: < 0.1 µM

Problem: Specify IC50 for `COn1c(=O)c(-c2c(Cl)cccc2Cl)cc2cnc(Nc3cccc(S(N)(=O)=O)c3)nc21` and stop.
Result: < 0.5 µM

Problem: Find the measured IC50 of `COCCOn1c(=O)c(-c2c(Cl)cccc2Cl)cc2cnc(Nc3ccc(N4CCN(C(C)C)CC4)cc3)nc21` and report it.
Result: < 0.1 µM

Problem: Note down IC50 recorded for `COn1c(=O)c(-c2c(Cl)cccc2Cl)cc2cnc(Nc3ccc(C(C)=O)cc3)nc21`
Result: < 0.5 µM

Problem: Give the reported IC50 for this compound. `COn1c(=O)c(-c2ccc(Cl)cc2Cl)cc2cnc(Nc3ccc(N4CCN(C)CC4)cc3)nc21`
Result: < 0.5 µM

Problem: State, in one line, measured IC50 of `COn1c(=O)c(-c2c(Cl)cccc2Cl)cc2cnc(Nc3cc(C(=O)N(C)CCO)n(C)c3)nc21`
Result: < 0.1 µM

Problem: # return recorded IC50 for input `COn1c(=O)c(-c2c(F)cccc2Cl)cc2cnc(Nc3ccc(C4CCNCC4)cc3)nc21`
Result: < 0.1 µM

Problem: Tell us which IC50 value is on record for `COn1c(=O)c(-c2c(Cl)cccc2Cl)cc2cnc(Nc3ccc(Cn4cccn4)cc3)nc21`
Result: < 0.5 µM
